The reported measurements were obtained from patent US8637024.

tested system: human soluble CD4 (sCD4) (human, UniProt P01730)
Documented Kd across a set of binders
assay endpoint: Kd (nM)

>  <binder>
DQTLH (clone 27, 31) (antibody, V domains shown) VH: QVQLQQSGPEVVKPGASVKMSCKASGYTFTDQTLHWVRQKPGQGLDWIGYINPYNDGTDYDEKFKGKATLTSDTSTSTAYMELSSLRSEDTAVYYCAREKDNYATGAWFAYWGQGTLVTVSS VL: DIVMTQSPDSLAVSLGERVTMNCKSSQSLLYSTNQKNYLAWYQQKPGQSPKLLIYWASTRESGVPDRFSGSGSGTDFTLTISSVQAEDVAVYYCQQYYSYRTFGGGTKLEIK

>  <assay endpoint>
Kd

>  <value>
0.015

$$$$
>  <binder>
SQTIH (clone 23) (antibody, V domains shown) VH: QVQLQQSGPEVVKPGASVKMSCKASGYTFTSQTIHWVRQKPGQGLDWIGYINPYNDGTDYDEKFKGKATLTSDTSTSTAYMELSSLRSEDTAVYYCAREKDNYATGAWFAYWGQGTLVTVSS VL: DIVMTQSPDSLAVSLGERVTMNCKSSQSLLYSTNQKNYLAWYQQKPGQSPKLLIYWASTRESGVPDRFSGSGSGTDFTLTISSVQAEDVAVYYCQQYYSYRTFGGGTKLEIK

>  <assay endpoint>
Kd

>  <value>
0.0192

$$$$
>  <binder>
M22 (CDR-H1 DYTIH) (antibody, V domains shown) VH: QVQLQQSGPEVVKPGASVKMSCKASGYTFTDYTIHWVRQKPGQGLDWIGYINPYNDGTDYDEKFKGKATLTSDTSTSTAYMELSSLRSEDTAVYYCAREKDNYATGAWFAYWGQGTLVTVSS VL: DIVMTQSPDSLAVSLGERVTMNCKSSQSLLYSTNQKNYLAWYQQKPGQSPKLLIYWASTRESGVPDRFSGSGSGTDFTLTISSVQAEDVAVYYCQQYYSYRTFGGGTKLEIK

>  <assay endpoint>
Kd

>  <value>
0.0346

$$$$
>  <binder>
SQTLH (clone 33) (antibody, V domains shown) VH: QVQLQQSGPEVVKPGASVKMSCKASGYTFTSQTLHWVRQKPGQGLDWIGYINPYNDGTDYDEKFKGKATLTSDTSTSTAYMELSSLRSEDTAVYYCAREKDNYATGAWFAYWGQGTLVTVSS VL: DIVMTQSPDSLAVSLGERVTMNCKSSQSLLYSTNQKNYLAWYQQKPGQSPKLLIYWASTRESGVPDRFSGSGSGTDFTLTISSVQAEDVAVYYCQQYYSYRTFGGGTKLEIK

>  <assay endpoint>
Kd

>  <value>
0.012

$$$$
>  <binder>
M28 (CDR-H1 DYTFH) (antibody, V domains shown) VH: QVQLQQSGPEVVKPGASVKMSCKASGYTFTDYTFHWVRQKPGQGLDWIGYINPYNDGTDYDEKFKGKATLTSDTSTSTAYMELSSLRSEDTAVYYCAREKDNYATGAWFAYWGQGTLVTVSS VL: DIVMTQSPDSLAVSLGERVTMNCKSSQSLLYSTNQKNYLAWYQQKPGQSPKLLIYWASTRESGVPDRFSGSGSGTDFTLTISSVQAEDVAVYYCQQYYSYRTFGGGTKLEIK

>  <assay endpoint>
Kd

>  <value>
0.0132

$$$$
>  <binder>
NQTLH (clone 26, 36) (antibody, V domains shown) VH: QVQLQQSGPEVVKPGASVKMSCKASGYTFTNQTLHWVRQKPGQGLDWIGYINPYNDGTDYDEKFKGKATLTSDTSTSTAYMELSSLRSEDTAVYYCAREKDNYATGAWFAYWGQGTLVTVSS VL: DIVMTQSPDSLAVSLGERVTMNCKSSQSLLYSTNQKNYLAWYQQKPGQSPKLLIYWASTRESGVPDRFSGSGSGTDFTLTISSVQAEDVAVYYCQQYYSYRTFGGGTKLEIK

>  <assay endpoint>
Kd

>  <value>
0.0406

$$$$
>  <binder>
EYTFH (clone 40) (antibody, V domains shown) VH: QVQLQQSGPEVVKPGASVKMSCKASGYTFTEYTFHWVRQKPGQGLDWIGYINPYNDGTDYDEKFKGKATLTSDTSTSTAYMELSSLRSEDTAVYYCAREKDNYATGAWFAYWGQGTLVTVSS VL: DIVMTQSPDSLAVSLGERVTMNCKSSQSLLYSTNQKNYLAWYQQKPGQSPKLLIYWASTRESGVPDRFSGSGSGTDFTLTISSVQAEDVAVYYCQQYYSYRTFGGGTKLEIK

>  <assay endpoint>
Kd

>  <value>
0.0112

$$$$
>  <binder>
GQTLH (clone 25, 37) (antibody, V domains shown) VH: QVQLQQSGPEVVKPGASVKMSCKASGYTFTGQTLHWVRQKPGQGLDWIGYINPYNDGTDYDEKFKGKATLTSDTSTSTAYMELSSLRSEDTAVYYCAREKDNYATGAWFAYWGQGTLVTVSS VL: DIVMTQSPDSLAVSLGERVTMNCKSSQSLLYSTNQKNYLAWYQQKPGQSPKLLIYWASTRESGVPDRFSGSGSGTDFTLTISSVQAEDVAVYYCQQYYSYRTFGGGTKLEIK

>  <assay endpoint>
Kd

>  <value>
0.0173

$$$$
>  <binder>
AQTLH (clone 30) (antibody, V domains shown) VH: QVQLQQSGPEVVKPGASVKMSCKASGYTFTAQTLHWVRQKPGQGLDWIGYINPYNDGTDYDEKFKGKATLTSDTSTSTAYMELSSLRSEDTAVYYCAREKDNYATGAWFAYWGQGTLVTVSS VL: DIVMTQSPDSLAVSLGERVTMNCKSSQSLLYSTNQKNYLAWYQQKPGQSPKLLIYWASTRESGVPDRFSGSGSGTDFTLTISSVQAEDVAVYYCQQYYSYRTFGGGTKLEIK

>  <assay endpoint>
Kd

>  <value>
0.0107

$$$$
>  <binder>
M24 (CDR-H1 EQTLH) (antibody, V domains shown) VH: QVQLQQSGPEVVKPGASVKMSCKASGYTFTEQTLHWVRQKPGQGLDWIGYINPYNDGTDYDEKFKGKATLTSDTSTSTAYMELSSLRSEDTAVYYCAREKDNYATGAWFAYWGQGTLVTVSS VL: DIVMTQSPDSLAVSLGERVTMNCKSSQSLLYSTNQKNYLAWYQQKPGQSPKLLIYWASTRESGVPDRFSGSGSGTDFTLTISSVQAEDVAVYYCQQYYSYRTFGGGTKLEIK

>  <assay endpoint>
Kd

>  <value>
0.0097

$$$$
